Value source: PubChem BioAssay AID1159580

Some compounds, each annotated with its measured normalized growth.
Assay: chemical genetic growth profiling, strain panel (AID 1159580);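 also: tested at 20 µM; growth read once vehicle control cultures reached saturation at 30 °C; 1 = growth at the plate median or of vehicle wells; lower values mean less growth of the strain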
Settings: S. cerevisiae deletion strains, growth OD, locus YDL192W, strain arf1, hits give low values
In all, about 5,500 compounds went through this assay and about 2,000 (36%) were called active. Inconclusive results (about 18%) are left out. The list shows a part of the results.

compound: COc1ccc(/C=C/C(=O)O)cc1OC
normalized growth: 1.03
//
compound: O=c1cccc2n1C[C@H]1CNCC2C1
normalized growth: 0.987
//
compound: CC(=O)O[C@H]1CC[C@@]2(C)C(=CCC3C2CC[C@@]2(C)C3CC[C@@H]2C(C)CCCC(C)C)C1 (some centres undefined)
normalized growth: 1.05
//
compound: CC1CC2C(C(O)CC3(C)C2CCC3(O)C(=O)COC(=O)CCC(=O)O)C2(C)C=CC(=O)C=C12 (centres undefined)
normalized growth: 0.982
//
compound: COc1ccccc1-c1cc(=O)c2cccc(OC)c2o1
normalized growth: 0.867
//
compound: COS(C)(=O)=O
normalized growth: 1.01
//
compound: O=C(O)CCCCC1SCC2NC(=O)NC21 (centres undefined)
normalized growth: 1.01
//
compound: CC(=O)Oc1cc(C)c2c(c1C(OC(C)=O)OC(C)=O)Oc1c(c(C)c(OC(C)=O)c3c1C(OC(C)=O)OC3=O)OC2=O (centres undefined)
normalized growth: 1.01
//
compound: NCc1ccc(S(N)(=O)=O)cc1
normalized growth: 0.979
//
compound: COc1cc(C(=O)O)c(O)c2c1OCO2
normalized growth: 1
//
compound: COc1ccc(/C=C/c2cc(O)cc(O)c2)cc1
normalized growth: 0.729
//
compound: CC(=O)O[C@H]1C[C@@H](OC(C)=O)C(C)(C)C2C[C@@H](OC(C)=O)[C@]3(C)C(CC[C@@]4(C)[C@H](c5ccoc5)C(=O)[C@H]5O[C@]543)[C@]21C (some centres undefined)
normalized growth: 1.01
//
compound: COc1c(C2COc3cc4c(cc3C2=O)CC(O)C(C)(C)O4)ccc2c1CCC(C)(C)O2 (centres undefined)
normalized growth: 1.01
//
compound: C/C=C/c1ccc(OC)cc1
normalized growth: 1.01
//
compound: COc1cc(/C=C/C(=O)O)cc(OC)c1OC
normalized growth: 1.01
//
compound: COc1ccc(/C=C/c2cc(O)cc(O[C@@H]3O[C@H](CO)[C@@H](O)[C@H](O)[C@H]3O)c2)cc1O
normalized growth: 1.02
//
compound: C[C@@]12C(=O)OC(=O)[C@]1(C)C1CCC2O1
normalized growth: 0.87
//
compound: Oc1ccc(/C=C/c2cc(O)cc(O)c2)cc1
normalized growth: 0.865
//
compound: CCCNC(C)C(=O)Nc1ccccc1C (centres undefined)
normalized growth: 0.996
//
compound: COc1cc(C(=O)O)cc(OC)c1O
normalized growth: 0.98
//
compound: CCC(CCC(C)C1CCC2C3CC=C4C[C@@H](OC(C)=O)CC[C@]4(C)C3CC[C@]12C)C(C)C (some centres undefined)
normalized growth: 1
//
compound: CC[C@]12CCCN3CCc4c(n(c5ccccc45)C(=O)C1)[C@@H]32
normalized growth: 0.977
//
compound: O=C(/C=C/c1ccc(O)c(O)c1)O[C@@H]1C[C@](O)(C(=O)O)C[C@@H](O)[C@H]1O
normalized growth: 1
//
compound: CC1(C)CC2C1CCC1(C)OC1CCC2(C)O (centres undefined)
normalized growth: 1.03
//
compound: C#C[C@]1(O)CCC2C3CCc4cc(O)ccc4C3CC[C@@]21C (some centres undefined)
normalized growth: 1.01
//
compound: O=C(O)CCCCCCCCCCCCC1C=CCC1 (centres undefined)
normalized growth: 0.82
//
compound: C[C@@H]1C[C@@H]([C@H](O)CC2CC(=O)NC(=O)C2)C(=O)[C@@H](C)C1
normalized growth: 0.0598
//
compound: O=C(O)c1cc(O)c(O)c(O)c1
normalized growth: 1.03
//
compound: C[C@H](COc1ccccc1)N[C@H](C)[C@H](O)c1ccc(O)cc1
normalized growth: 0.998
//
compound: CC[C@]12CCCN3CCc4c(n(c5ccccc45)[C@](O)(C(=O)OC)C1)[C@@H]32
normalized growth: 0.979
//
compound: CCOC(=O)C1=C[C@]2(CC)CCCN3CCc4c(n1c1ccccc41)[C@@H]32
normalized growth: 0.975
//
compound: OC/C=C/c1ccc(O)c(O)c1
normalized growth: 0.973
//
compound: CC12CCCC(O)(C1)C1CC(C)(C)C1CC2 (centres undefined)
normalized growth: 0.984
//
compound: C=CCN1CC[C@]23c4c5ccc(O)c4OC2C(=O)CC[C@@]3(O)[C@H]1C5 (some centres undefined)
normalized growth: 0.988
//
compound: CC1(C)CC2C1CCC1(C)OC2(C)CCC1O (centres undefined)
normalized growth: 1
//
compound: Oc1cc(O)cc(/C=C/c2ccccc2)c1
normalized growth: 0.977
//
compound: C=CCc1cc(OC)c2c(c1OC)OCO2
normalized growth: 0.956
//
compound: NC(=O)c1cc[n+](CC2=C(C(=O)O)N3C(=O)C(NC(=O)C(c4ccccc4)S(=O)(=O)[O-])C3SC2)cc1 (centres undefined)
normalized growth: 0.984
//
compound: O=c1ccn([C@@H]2O[C@H](COP(=O)(O)OP(=O)(O)OP(=O)(O)O)[C@@H](O)[C@H]2O)c(=O)[nH]1
normalized growth: 0.991
//
compound: CN(Cc1cnc2nc(N)nc(N)c2n1)c1ccc(C(=O)NC(CCC(=O)O)C(=O)O)cc1 (centres undefined)
normalized growth: 0.95
//
compound: CS(=O)(=O)OCCCCOS(C)(=O)=O
normalized growth: 0.942
//
compound: O=C(O)c1cc(=O)c2c(OCC(O)COc3cccc4oc(C(=O)O)cc(=O)c34)cccc2o1
normalized growth: 1.02
//
compound: CCOP(=S)(OCC)Oc1ccc2c(C)c(Cl)c(=O)oc2c1
normalized growth: 0.975
//
compound: Nc1nc(N)c2nc(CNc3ccc(C(=O)NC(CCC(=O)O)C(=O)O)cc3)cnc2n1 (centres undefined)
normalized growth: 1

====

Experiment: chemical genetic growth profiling, strain panel (AID 1159580);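 also: tested at 20 µM; growth read once vehicle control cultures reached saturation at 30 °C; 1 = growth at the plate median or of vehicle wells; lower values mean less growth of the strain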
Conditions: S. cerevisiae deletion strains, growth OD, locus YER016W, strain bim1, hits give low values
The campaign covered roughly 5,500 compounds. About 2,000 (36%) were called active. Inconclusive results (about 18%) are left out. Some of the results follow.
Some molecules, each annotated with its measured normalized growth.

molecule: c1ccc(-c2ccc(C(c3ccccc3)n3ccnc3)cc2)cc1 (stereo unspecified)
normalized growth: 0.0698
--
molecule: CCOC(=O)CCCCCCCCCCCCC1C=CCC1 (stereo unspecified)
normalized growth: 0.978
--
molecule: COc1ccccc1OCC(O)CN1CCN(CC(=O)Nc2c(C)cccc2C)CC1 (stereo unspecified)
normalized growth: 1.03
--
molecule: Nc1c(Br)cc(Br)cc1CNC1CCC(O)CC1 (stereo unspecified)
normalized growth: 1
--
molecule: CCC(COC(=O)c1cc(OC)c(OC)c(OC)c1)(c1ccccc1)N(C)C (stereo unspecified)
normalized growth: 0.983
--
molecule: O=C(O)CCCCC1SCC2NC(=O)NC21 (stereo unspecified)
normalized growth: 0.988

====

Test: chemical genetic growth profiling, strain panel (AID 1159580);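 also: tested at 20 µM; growth read once vehicle control cultures reached saturation at 30 °C; 1 = growth at the plate median or of vehicle wells; lower values mean less growth of the strain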
Details: S. cerevisiae deletion strains, growth OD, locus YFL009W, strain cdc4, hits give low values
Screen size: about 5,500 compounds; about 2,000 (36%) were called active. Not shown: some 18% with an inconclusive outcome. The list shows a part of the results.

structure: COc1cc(Cl)c(NS(=O)(=O)c2cc(Br)c(Br)s2)c(OC)c1
normalized growth: 0.948
--
structure: O=C1/C(=C/c2c(F)cccc2Cl)Cc2ccccc21
normalized growth: 0.961
--
structure: CCOC(=O)NC(=S)NC12CC3CC(CC(C3)C1)C2
normalized growth: 0.972
--
structure: C/C(=N/OC(=O)Nc1ccc(Cl)cc1)c1ccc2c(c1)CCO2
normalized growth: 0.949

====

Assay: chemical genetic growth profiling, strain panel (AID 1159580);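 also: tested at 20 µM; growth read once vehicle control cultures reached saturation at 30 °C; 1 = growth at the plate median or of vehicle wells; lower values mean less growth of the strain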
Conditions: S. cerevisiae deletion strains, growth OD, locus YHR129C, strain ARP1
Out of some 5,500 compounds screened, about 2,000 (36%) were called active. Inconclusive results (about 18%) are left out. Rule as the data show it: active = normalized growth mostly below about 0.91 (no sharp cut-off); inconclusive = no clear call, values can overlap the other calls; inactive = mostly above about 0.92. This is one part of the list.
Classes used: active, inactive

compound: CN(Cc1cnc2nc(N)nc(N)c2n1)c1ccc(C(=O)NC(CCC(=O)O)C(=O)O)cc1 (stereo not given)
assigned_label: inactive
--
compound: CC(=O)OCC(=O)[C@@]12OC(C)(C)O[C@@H]1CC1C3C[C@H](F)C4=CC(=O)C=C[C@]4(C)[C@@]3(F)[C@@H](O)C[C@@]12C (stereo not given in full)
assigned_label: inactive
--
compound: Nc1nc2c(c(=O)[nH]1)N(C=O)C(CNc1ccc(C(=O)N[C@@H](CCC(=O)O)C(=O)O)cc1)CN2 (stereo not given in full)
assigned_label: inactive
--
compound: C[C@H](COc1ccccc1)N[C@H](C)[C@H](O)c1ccc(O)cc1
assigned_label: inactive
--
compound: COc1c(C2COc3cc4c(cc3C2=O)CC(O)C(C)(C)O4)ccc2c1CCC(C)(C)O2 (stereo not given)
assigned_label: inactive
--
compound: O=C(O)c1cc(=O)c2c(OCC(O)COc3cccc4oc(C(=O)O)cc(=O)c34)cccc2o1
assigned_label: inactive
--
compound: CCCN(CCC)C(=O)C(CCC(=O)O)NC(=O)c1ccccc1 (stereo not given)
assigned_label: inactive
--
compound: COc1ccc(/C=C/c2cc(O)cc(O[C@@H]3O[C@H](CO)[C@@H](O)[C@H](O)[C@H]3O)c2)cc1O
assigned_label: inactive
--
compound: C=CC1=C(C)/C(=C/c2[nH]c(Cc3[nH]c(/C=C4\NC(=O)C(C)=C4C=C)c(C)c3CCC(=O)O)c(CCC(=O)O)c2C)NC1=O
assigned_label: inactive
--
compound: OC/C=C/c1ccc(O)c(O)c1
assigned_label: inactive
--
compound: O=c1cccc2n1C[C@H]1CNCC2C1
assigned_label: inactive
--
compound: CCn1cc(C(=O)O)c(=O)c2ccc(C)nc21
assigned_label: active
--
compound: NCc1ccc(S(N)(=O)=O)cc1
assigned_label: inactive
--
compound: C[C@@]12C(=O)OC(=O)[C@]1(C)C1CCC2O1
assigned_label: active
--
compound: CCC(CCC(C)C1CCC2C3CC=C4C[C@@H](OC(C)=O)CC[C@]4(C)C3CC[C@]12C)C(C)C (stereo not given in full)
assigned_label: inactive
--
compound: COc1ccccc1N1CCNCC1
assigned_label: inactive
--
compound: COc1ccccc1-c1cc(=O)c2c(OC)cccc2o1
assigned_label: inactive
--
compound: C/C=C/c1ccc(OC)cc1
assigned_label: inactive
--
compound: OCC(S)CS (stereo not given)
assigned_label: inactive
--
compound: COc1cc(C(=O)O)c(O)c2c1OCO2
assigned_label: inactive
--
compound: CC(=O)N[C@@H]1[C@@H](C(O)[C@H](O)CO)O[C@](O)(C(=O)O)C[C@@H]1O (stereo not given in full)
assigned_label: inactive
--
compound: Nc1nc2ncc(CNc3ccc(C(=O)N[C@@H](CCC(=O)O)C(=O)O)cc3)nc2c(=O)[nH]1
assigned_label: inactive
--
compound: COc1cc(C)c2c(c1C=O)Oc1c(c(C)c(O)c3c1C(O)OC3=O)OC2=O (stereo not given)
assigned_label: inactive
--
compound: CC12CCC3C(CC=C4CC(O)CCC43C)C1CCC2=O (stereo not given)
assigned_label: active
--
compound: COc1ccc(-c2cc(C(F)F)nn2-c2ccc(S(N)(=O)=O)cc2)cc1F
assigned_label: inactive
--
compound: CC12CCCC(O)(C1)C1CC(C)(C)C1CC2 (stereo not given)
assigned_label: inactive
--
compound: O=C1O[C@@H](CO)[C@H](O)[C@@H](O)[C@@H]1O
assigned_label: inactive
--
compound: CC1CC2C(C(O)CC3(C)C2CCC3(O)C(=O)COC(=O)CCC(=O)O)C2(C)C=CC(=O)C=C12 (stereo not given)
assigned_label: inactive
--
compound: CC12CCC(CC1)C(C)(C)O2
assigned_label: inactive
--
compound: COc1ccc(/C=C/c2cc(O)cc(O)c2)cc1
assigned_label: active
--
compound: COc1c(C(=O)O)ccc2c1CCC(C)(C)O2
assigned_label: inactive
--
compound: CC1(C)CC2C1CCC1(C)OC2(C)CCC1O (stereo not given)
assigned_label: inactive
--
compound: CCn1cc(C(=O)O)c(=O)c2cc3c(cc21)OCO3
assigned_label: inactive
--
compound: CC(=O)O[C@H]1CC[C@@]2(C)C(=CCC3C2CC[C@@]2(C)C3CC[C@@H]2C(C)CCCC(C)C)C1 (stereo not given in full)
assigned_label: inactive
--
compound: CC[C@@H](C(=O)[C@@H](C)[C@@H](O)[C@H](C)[C@@H]1O[C@@H]([C@@H](CC)C(=O)O)CC[C@@H]1C)[C@H]1OC2(C=C[C@@H](O)[C@]3(CC[C@@](C)([C@H]4CC[C@](O)(CC)[C@H](C)O4)O3)O2)[C@H](C)C[C@@H]1C (stereo not given in full)
assigned_label: inactive
--
compound: O=C(O)P(=O)(O)O
assigned_label: inactive
--
compound: COc1cc2c3cc1Oc1cc(ccc1O)OC1c4c(cc(OC)c(O)c4Oc4ccc(cc4)CC3N(C)CC2)CCN1C (stereo not given)
assigned_label: inactive
--
compound: COc1ccccc1-c1cc(=O)c2cccc(OC)c2o1
assigned_label: active
--
compound: CC(=O)C1=C(O)C2C3c4c[nH]c5cccc(c45)CC3C(C)(C)N2C1=O (stereo not given)
assigned_label: inactive
--
compound: c1ccc2[nH]c(-c3cscn3)nc2c1
assigned_label: inactive
--
compound: CCn1cc(C(=O)O)c(=O)c2cnc(N3CCNCC3)nc21
assigned_label: inactive
--
compound: S=c1[nH]c2ccccc2s1
assigned_label: inactive
--
compound: COc1cc2c(cc1O)CC1c3c(cc(O)c(OC)c3-2)CCN1C (stereo not given)
assigned_label: inactive
--
compound: CC1(C)CC2C1CCC1(C)OC1CCC2(C)O (stereo not given)
assigned_label: inactive
--
compound: C[C@@H]1CC2C3CCC4=CC(=O)C=C[C@]4(C)[C@@]3(F)[C@@H](O)C[C@]2(C)[C@@]1(O)C(=O)COP(=O)(O)O (stereo not given in full)
assigned_label: inactive
